system: fast Na^+ channel; experiment: block of fast Na+ channel (data not shown); type: cell-based; settings: read-out: ED50, fast Na^+ channel
pEC50: −log10 of the molar value.
METRIC: pEC50

Challenge: Please report the measured pEC50 for COC(=O)C1=C(C)NC(C)=C(C(=O)OC(C)C)C1c1cccc2nonc12 (stereo not shown)
Response given: ~5.00

Source of measurements: patent EP1028734B1
